Values from patent US20150139990A1

- System: T1, human CD81 mutant L165A (human, UniProt P60033 1-236, limits assumed)
- T1 construct: as m30; not shown: C-terminal V5 and 6xHis tags
- T1 sequence: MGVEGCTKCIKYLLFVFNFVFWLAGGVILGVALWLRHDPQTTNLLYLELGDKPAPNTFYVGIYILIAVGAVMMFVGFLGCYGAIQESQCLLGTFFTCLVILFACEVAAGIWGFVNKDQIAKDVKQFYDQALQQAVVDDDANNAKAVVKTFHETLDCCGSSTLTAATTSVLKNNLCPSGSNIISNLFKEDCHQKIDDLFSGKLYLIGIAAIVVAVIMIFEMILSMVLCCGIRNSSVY
- Test Details: ELISA
Measured Property: relative binding affinity

002-B07 (antibody, human IgG4 S228P, lambda, V domains shown, IgG4 S228P) VH: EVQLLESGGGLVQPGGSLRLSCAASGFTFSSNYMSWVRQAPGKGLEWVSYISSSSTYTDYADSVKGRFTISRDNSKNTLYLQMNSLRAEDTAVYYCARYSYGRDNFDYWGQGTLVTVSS VL: QSVLTQPSSASGTPGQRVTISCTGSTSNIGAGYDTHWYQQLPGTAPKLLIYGNSNRPSGVPDRFSGSKSGTSASLAISGLRSEDEADYYCQSYDTNLSGWVFGGGTKLTVLG	< 20%

Now consider a different binder.
Task: Consider the binder shown here: 002-F01 (antibody, human IgG4 S228P, lambda, V domains shown, IgG4 S228P) VH: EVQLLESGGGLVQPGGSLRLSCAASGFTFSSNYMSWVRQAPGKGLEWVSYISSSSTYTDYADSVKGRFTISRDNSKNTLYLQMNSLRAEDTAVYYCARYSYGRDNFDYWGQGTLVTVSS VL: QSVLTQPPSASGTPGQRVTISCTGSTSNIGAGYDTHWYQQLPGTAPKLLIYGNSNRPSGVPDRFSGSKSGTSASLAISGLRSEDEADYYCQSYDTNLSAWVFGGGTKLTVLG What is its recorded relative binding affinity?
Output: < 20%
